SYSTEM: DNA dC->dU-editing enzyme APOBEC-3A (Homo sapiens)
Sequence (P31941 whole entry): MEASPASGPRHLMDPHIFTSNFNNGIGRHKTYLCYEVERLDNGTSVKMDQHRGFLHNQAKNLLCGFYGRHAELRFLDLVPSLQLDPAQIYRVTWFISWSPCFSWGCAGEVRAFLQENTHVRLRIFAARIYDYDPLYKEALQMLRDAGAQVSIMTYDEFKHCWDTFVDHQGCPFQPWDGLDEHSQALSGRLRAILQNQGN
ASSAY NOTES: Dose Response confirmation of small molecule APOBEC3A DNA Deaminase Inhibitors via a fluorescence-based single-stranded DNA deaminase assay. [Related pubchem assays (depositor defined):AID493011, AID493024]
Format: functional
Calls of active or inactive are those of the source.
OUTCOME MEASURE: IC50

COc1ccccc1NC(=O)c1cc[n+](C)cc1 | 2480 nM (active)

Query: So what does the record say about IC50 for CC(=O)Nc1nnc(SCC(=O)NCCOc2ccccc2)s1 ?
Response: 4130 nM (active)

Query: So what does the record say about IC50 for O=P(c1ccccc1)(c1ccccc1)c1cc(S(=O)(=O)O)ccc1O ?
Response: 14300 nM (active)

Query: So what does the record say about IC50 for COc1cc(/C=C/c2cccc[n+]2C)ccc1OCC(=O)Nc1ccccc1C ?
Response: 1560 nM (active)

Query: So what does the record say about IC50 for CCN1C(NCCCCO)=N[C@@H](c2cccc(F)c2)C(C(=O)OC)=C1C ?
Response: 3060 nM (active)

Query: So what does the record say about IC50 for COc1ccc(/C=C2\C(=O)NCC(=O)N2C)cc1 ?
Response: 2810 nM (active)

###

SYSTEM: UniProt:P07550
Sequence (P07550 whole entry): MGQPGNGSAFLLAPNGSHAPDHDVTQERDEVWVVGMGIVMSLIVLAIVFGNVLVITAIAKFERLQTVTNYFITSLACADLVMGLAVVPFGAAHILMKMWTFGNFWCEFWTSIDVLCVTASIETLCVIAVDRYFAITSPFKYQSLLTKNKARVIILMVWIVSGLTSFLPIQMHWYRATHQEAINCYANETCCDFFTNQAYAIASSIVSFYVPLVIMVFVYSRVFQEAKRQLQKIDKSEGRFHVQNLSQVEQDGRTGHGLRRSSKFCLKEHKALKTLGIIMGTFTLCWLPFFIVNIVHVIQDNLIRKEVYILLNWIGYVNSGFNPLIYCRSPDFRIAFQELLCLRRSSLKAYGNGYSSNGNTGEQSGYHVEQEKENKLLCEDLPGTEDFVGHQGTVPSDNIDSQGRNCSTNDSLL
ASSAY NOTES: ADRB2 activation measured by internalization – cell-based, FAP fluorogen, flow cytometry, cherry pick 1, dose response (AID 588763)
Type: functional
Active and inactive are the calls of the source.
OUTCOME MEASURE: EC50

Cc1ccc(Sc2cc(N3CCOCC3)nc(-c3ccccc3)n2)cc1 | 4.82 µM (active)
CC1CCCN(c2ccc([N+](=O)[O-])cc2C(=O)c2ccccc2)C1 (centres undefined) | 12.2 µM (inactive)
Clc1ccccc1C(c1ccccc1)(c1ccccc1)n1ccnc1 | 4.69 µM (active)

Here's the next entry for you.
Query: So what does the record say about EC50 for COc1ccc(C(C)=O)cc1COc1ccc(Cl)cc1Cl ?
Response: 2.67 µM (active)

###

Cytochrome P450 1A2 (Homo sapiens) AC50 data;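 note: PubChem cytochrome P450 panel assay, CYP1A2 panel member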
Sequence (P05177 whole entry): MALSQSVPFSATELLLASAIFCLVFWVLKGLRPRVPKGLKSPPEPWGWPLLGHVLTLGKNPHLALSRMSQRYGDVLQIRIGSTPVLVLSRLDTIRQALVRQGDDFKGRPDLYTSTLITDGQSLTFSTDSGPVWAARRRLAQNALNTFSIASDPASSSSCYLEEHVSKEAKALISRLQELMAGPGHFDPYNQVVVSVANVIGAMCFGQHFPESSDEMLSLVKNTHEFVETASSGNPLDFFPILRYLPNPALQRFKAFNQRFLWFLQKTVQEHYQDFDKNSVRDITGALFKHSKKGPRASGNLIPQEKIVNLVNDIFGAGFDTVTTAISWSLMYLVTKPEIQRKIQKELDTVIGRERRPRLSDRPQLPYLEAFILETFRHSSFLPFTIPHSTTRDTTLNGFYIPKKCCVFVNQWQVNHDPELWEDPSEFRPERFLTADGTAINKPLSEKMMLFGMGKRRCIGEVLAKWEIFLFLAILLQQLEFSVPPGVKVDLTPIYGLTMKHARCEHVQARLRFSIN
Active and inactive are the calls of the source.

CN(Cc1cc(Cl)cc(Cl)c1O)Cc1c(O)ccc2ccccc12 | 0.631 µM (inconclusive)
Cc1cc(NC(=O)c2nn(C)c(C)c2[N+](=O)[O-])no1 | 25.1 µM (inconclusive)
CCOC(=O)Cc1csc(NC(=O)c2c(-c3c(Cl)cccc3Cl)noc2C)n1 | 14.1 µM (inconclusive)

Query: So what does the record say about AC50 for CCC(CC)c1nnc(NC(=O)c2ccc3ccccc3n2)s1 ?
Response: 2.51 µM (active)

Query: So what does the record say about AC50 for O=C(NC1CCCCC1)C12CC3CC(C1)CC(n1cncn1)(C3)C2 ?
Response: 28.2 µM (inconclusive)

Query: So what does the record say about AC50 for O=C1CN(C(=O)c2ccc(Br)o2)C(c2ccc(F)cc2)c2cc(Cl)ccc2N1 (stereo not drawn) ?
Response: 0.0631 µM (inconclusive)

Query: So what does the record say about AC50 for CC(C)CCNC(=O)C12CN(Cc3ccccc3)CC1C(c1cccc([N+](=O)[O-])c1)=NO2 (stereo not drawn) ?
Response: 14.1 µM (inconclusive)

###

ASSAY NOTES: loss of viability in HepG2 cells – cell-based, CellTiter-Glo, cherry-picked, cytotoxicity control for Shn3 inhibitor project, dose response (AID 624134)
Type: functional
Calls of active or inactive are those of the source.
OUTCOME MEASURE: AC50

CC(Sc1nc2ccccc2c(=O)n1C)C(=O)N(C)C1CCCCC1 (centres undefined) | 38.2 µM (active)
CN1CCN(c2ccc(-c3ccc4ccccc4n3)cc2)CC1 | 22.6 µM (active)
COc1ccc(CCN2C(=O)CS/C2=N\c2ccc(C(C)C)cc2)cc1OC | 5.37 µM (active)

Here's the next entry for you.
Query: So what does the record say about AC50 for COc1ccccc1C(CCNCc1ccc(N(C)C)cc1)c1ccc(OC(C)C)cc1 (centres undefined) ?
Response: 12.5 µM (active)

###

Consider the following molecules and their measured IC50 readings.
SYSTEM: Polyadenylate-binding protein 1 (Homo sapiens, UniProt P11940)
Sequence (P11940 whole entry, the tested form may be a part): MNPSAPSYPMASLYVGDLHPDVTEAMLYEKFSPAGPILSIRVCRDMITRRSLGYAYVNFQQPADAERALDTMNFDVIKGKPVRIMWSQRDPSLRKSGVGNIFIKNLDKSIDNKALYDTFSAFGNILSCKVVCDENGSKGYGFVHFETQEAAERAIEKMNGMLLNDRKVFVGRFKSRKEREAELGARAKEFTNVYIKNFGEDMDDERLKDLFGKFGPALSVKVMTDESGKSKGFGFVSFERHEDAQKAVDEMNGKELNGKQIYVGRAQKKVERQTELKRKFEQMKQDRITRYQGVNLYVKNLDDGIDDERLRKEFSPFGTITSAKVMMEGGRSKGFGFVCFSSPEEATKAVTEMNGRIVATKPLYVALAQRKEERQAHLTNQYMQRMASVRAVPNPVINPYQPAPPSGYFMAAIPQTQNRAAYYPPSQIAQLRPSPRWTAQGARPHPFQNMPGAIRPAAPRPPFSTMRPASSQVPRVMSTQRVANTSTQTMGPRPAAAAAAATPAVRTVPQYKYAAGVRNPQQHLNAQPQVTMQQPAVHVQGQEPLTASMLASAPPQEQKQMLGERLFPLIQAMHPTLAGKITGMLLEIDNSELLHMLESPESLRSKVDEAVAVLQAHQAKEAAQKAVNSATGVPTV
ASSAY NOTES: MLLE domain peptide-binding blockers, IC50 – biochemical, fluorescence polarization, FITC-PAM2 peptide, dose response (AID 602259)
Assay type: functional
CONDITION: read-out: IC50_Mean
The source made the active and inactive calls.

Solved entries (count: 4):
CC(=O)n1c2ccccc2c2c1c1ccccc1n2C | > 66 µM (inactive)
CC1(C)N=C(SCC(=O)Nc2ccccc2)C(c2ccc(Cl)cc2)=N1 | > 66 µM (inactive)
COC(=O)c1sc(=S)sc1C(=O)OC | > 66 µM (inactive)
Cn1nnc2c(C(N)=O)ncn2c1=O [TEMOZOLOMIDE] | 43.4 µM (inactive)

Query: So what does the record say about IC50 for Cc1ccc(N2C(=O)CC(SCC(=O)Nc3ccc(S(N)(=O)=O)cc3)C2=O)cc1 (stereo unspecified) ?
Response: > 66 µM (inactive)

Query: So what does the record say about IC50 for CCC(C)N/C=C1/C(=O)NC(=O)N(c2ccccc2)C1=O (stereo unspecified) ?
Response: > 66 µM (inactive)

###

SYSTEM: Ras and Rab interactor 1/Tyrosine-protein kinase ABL1 (Homo sapiens, UniProt P00519+Q13671);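 note: biochemical TR-FRET dose-response test measuring inhibition of binding between Rin1 and Abl proteins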
Sequence (P00519 whole entry): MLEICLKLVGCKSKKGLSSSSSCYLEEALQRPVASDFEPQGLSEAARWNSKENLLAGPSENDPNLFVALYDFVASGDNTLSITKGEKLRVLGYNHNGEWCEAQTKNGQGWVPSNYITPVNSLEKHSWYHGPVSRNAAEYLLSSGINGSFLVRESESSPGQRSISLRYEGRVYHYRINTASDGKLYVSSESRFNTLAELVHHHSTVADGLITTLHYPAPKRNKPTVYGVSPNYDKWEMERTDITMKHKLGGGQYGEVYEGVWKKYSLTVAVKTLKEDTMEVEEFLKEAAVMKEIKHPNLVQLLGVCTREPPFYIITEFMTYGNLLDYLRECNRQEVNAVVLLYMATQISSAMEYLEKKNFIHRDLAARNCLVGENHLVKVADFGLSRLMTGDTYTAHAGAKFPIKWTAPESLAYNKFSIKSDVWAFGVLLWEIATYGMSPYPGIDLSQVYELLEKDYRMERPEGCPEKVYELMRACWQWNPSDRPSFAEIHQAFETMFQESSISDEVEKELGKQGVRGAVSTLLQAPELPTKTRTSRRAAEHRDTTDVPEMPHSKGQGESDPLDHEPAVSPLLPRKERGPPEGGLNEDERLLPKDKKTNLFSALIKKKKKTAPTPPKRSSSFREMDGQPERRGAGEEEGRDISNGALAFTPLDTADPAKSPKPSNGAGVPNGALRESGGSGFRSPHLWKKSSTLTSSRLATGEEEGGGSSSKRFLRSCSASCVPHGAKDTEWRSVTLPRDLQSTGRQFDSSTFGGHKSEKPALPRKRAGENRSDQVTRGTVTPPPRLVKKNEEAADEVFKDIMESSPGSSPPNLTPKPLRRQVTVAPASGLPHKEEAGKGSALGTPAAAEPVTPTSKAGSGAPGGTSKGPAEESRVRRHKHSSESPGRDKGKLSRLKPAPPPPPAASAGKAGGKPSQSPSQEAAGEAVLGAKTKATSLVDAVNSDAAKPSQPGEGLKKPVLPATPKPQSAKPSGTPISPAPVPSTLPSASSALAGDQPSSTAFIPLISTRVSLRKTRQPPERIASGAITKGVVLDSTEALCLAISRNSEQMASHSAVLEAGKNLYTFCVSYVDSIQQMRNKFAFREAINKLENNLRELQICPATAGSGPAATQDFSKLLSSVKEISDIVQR
Sequence (Q13671 whole entry): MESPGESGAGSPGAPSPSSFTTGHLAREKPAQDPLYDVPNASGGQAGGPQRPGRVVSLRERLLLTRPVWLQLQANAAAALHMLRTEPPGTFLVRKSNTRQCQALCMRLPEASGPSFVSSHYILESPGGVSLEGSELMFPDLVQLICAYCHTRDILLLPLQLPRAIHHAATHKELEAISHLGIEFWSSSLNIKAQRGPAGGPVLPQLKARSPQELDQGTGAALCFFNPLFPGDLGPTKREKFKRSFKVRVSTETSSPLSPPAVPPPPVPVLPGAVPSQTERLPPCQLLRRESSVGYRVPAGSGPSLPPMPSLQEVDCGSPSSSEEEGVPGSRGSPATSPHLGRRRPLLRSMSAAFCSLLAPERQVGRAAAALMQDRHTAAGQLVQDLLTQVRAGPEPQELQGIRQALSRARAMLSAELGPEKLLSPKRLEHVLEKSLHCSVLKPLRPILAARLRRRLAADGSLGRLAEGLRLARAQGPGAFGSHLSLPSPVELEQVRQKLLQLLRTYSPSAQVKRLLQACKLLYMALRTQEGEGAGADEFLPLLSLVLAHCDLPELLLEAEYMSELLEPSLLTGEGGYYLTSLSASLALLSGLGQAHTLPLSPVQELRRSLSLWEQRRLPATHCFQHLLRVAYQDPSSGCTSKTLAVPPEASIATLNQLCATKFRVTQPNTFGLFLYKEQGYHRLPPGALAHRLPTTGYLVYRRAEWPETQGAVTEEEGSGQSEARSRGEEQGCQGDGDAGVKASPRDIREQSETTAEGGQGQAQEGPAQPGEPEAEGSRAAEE
Assay type: functional
Active and inactive are the calls of the source.
Outcome field: choose from class 1 (active), class 0 (inactive)

O=C1CNC(=O)N1CC(O)Cn1c2ccccc2c2ccccc21 (centres undefined) | class 0

Query: Which outcome was assigned to O=C(c1cc(COc2cccc3cccnc23)on1)N1CCC[C@H]1CO in this test?
Response: class 1

Query: Which outcome was assigned to C[C@@H]1CCCCO[C@@H](CN(C)S(=O)(=O)c2ccccc2)[C@@H](C)CN([C@H](C)CO)C(=O)c2cc(NS(=O)(=O)c3ccc(F)cc3)ccc2O1 in this test?
Response: class 1

Query: Which outcome was assigned to CCOC(=O)CCCCC(=O)c1[nH]c(=O)[nH]c1CSc1nc(C)cc(C)n1 in this test?
Response: class 1

###

SYSTEM: DNA dC->dU-editing enzyme APOBEC-3G (Homo sapiens, UniProt Q9HC16);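 note: Dose-response counterscreen measuring inhibition of APOBEC3G DNA deaminase activity, run while confirming APOBEC3A inhibitors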
Sequence (Q9HC16 whole entry): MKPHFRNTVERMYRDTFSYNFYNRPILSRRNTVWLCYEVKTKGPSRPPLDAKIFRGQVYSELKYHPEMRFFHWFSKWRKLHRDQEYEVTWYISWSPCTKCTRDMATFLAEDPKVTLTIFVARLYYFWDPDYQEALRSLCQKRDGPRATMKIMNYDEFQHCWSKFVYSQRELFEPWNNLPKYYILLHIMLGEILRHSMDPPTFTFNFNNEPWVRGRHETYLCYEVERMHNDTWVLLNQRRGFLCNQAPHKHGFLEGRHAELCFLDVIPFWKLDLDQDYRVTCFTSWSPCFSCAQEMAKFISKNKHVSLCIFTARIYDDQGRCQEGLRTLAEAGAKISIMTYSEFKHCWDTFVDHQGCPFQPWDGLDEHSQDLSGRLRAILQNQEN
Type: functional
Active and inactive are the calls of the source.
Consider the following compounds and their measured IC50 readings.

Solved entries (count: 5):
CC(=O)Nc1nnc(SCC(=O)NCCOc2ccccc2)s1 | 5.12 µM (active)
COc1ccccc1NC(=O)c1cc[n+](C)cc1 | 2.3 µM (active)
COc1ccc(/C=C2\C(=O)NCC(=O)N2C)cc1 | 6.99 µM (active)
O=P(c1ccccc1)(c1ccccc1)c1cc(S(=O)(=O)O)ccc1O | 45 µM (active)
CCN1C(NCCCCO)=N[C@@H](c2cccc(F)c2)C(C(=O)OC)=C1C | 5.05 µM (active)

Query: So what does the record say about IC50 for COc1cc(/C=C/c2cccc[n+]2C)ccc1OCC(=O)Nc1ccccc1C ?
Response: 1.29 µM (active)

###

SYSTEM: Calpain-2 catalytic subunit (Sus scrofa, UniProt P43367)
Sequence (P43367 whole entry): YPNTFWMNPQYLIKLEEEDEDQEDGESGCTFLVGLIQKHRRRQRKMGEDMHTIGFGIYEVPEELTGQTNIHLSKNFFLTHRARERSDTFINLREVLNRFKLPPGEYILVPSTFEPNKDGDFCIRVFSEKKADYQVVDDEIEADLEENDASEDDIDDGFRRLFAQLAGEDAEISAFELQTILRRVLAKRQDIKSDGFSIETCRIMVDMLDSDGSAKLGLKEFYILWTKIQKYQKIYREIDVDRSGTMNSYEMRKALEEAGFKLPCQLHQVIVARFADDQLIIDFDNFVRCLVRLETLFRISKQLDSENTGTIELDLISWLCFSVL
ASSAY NOTES: m-calpain protease blockers, concentration series – biochemical, fluorogenic peptide substrate, dose response (AID 1420)
Type: functional
Consider the following molecules and their measured IC50 readings.

Query: So what does the record say about IC50 for CC(C)(C)SCCNS(=O)(=O)c1ccc2ccccc2c1 ?
Response: > 50 µM (not active)

###

SYSTEM: Caspase-3 (Homo sapiens, UniProt P42574);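 note: Dose-response selectivity test against caspase-3 for candidate inhibitors of sentrin-specific proteases (SENPs)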
Type: functional
Activity calls are given as the source filed them.
Outcome field: choose from yes for active, no for inactive

Clc1ccc(-c2nnc(-c3ccccc3Cl)o2)cc1 | yes
O=C(/C=C/c1ccco1)Nc1ccc(N2CCCC2)cc1 | no
Cc1ccc(SCC(=O)Nc2cc([N+](=O)[O-])ccc2O)cc1 | yes

Consider now this further compound.
Query: Which outcome was assigned to Brc1ccc(/C=N/Nc2ccccn2)cc1 in this test?
Response: yes

###

SYSTEM: Cytochrome P450 2C19 (Homo sapiens)
Sequence (P33261 whole entry): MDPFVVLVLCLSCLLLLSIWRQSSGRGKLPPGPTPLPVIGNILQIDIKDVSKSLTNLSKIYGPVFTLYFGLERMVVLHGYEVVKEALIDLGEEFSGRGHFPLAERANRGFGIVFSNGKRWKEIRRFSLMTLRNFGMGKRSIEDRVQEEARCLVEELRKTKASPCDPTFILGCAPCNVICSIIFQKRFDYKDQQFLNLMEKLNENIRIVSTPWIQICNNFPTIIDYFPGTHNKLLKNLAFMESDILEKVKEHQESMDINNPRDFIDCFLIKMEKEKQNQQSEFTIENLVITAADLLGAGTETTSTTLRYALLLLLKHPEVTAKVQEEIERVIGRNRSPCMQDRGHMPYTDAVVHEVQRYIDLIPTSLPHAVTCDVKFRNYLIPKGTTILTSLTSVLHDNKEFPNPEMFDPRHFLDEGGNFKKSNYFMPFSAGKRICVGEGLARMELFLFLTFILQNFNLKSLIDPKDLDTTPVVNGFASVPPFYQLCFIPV
ASSAY NOTES: Cytochrome panel assay with activity outcomes. Panel member name: p450-cyp2c19 Compounds with AC50 equal or less than 10 uM are considered active
Assay type: functional
CONDITION: read-out: AC50
Consider the following compounds and their measured AC50 readings.

Solved entries (count: 4):
O=C(Nc1nnc(SCc2c(Cl)cccc2Cl)s1)C1CCCO1 (stereo unspecified) | 14.1 µM (inconclusive)
O=C(NC1CCCCC1)C12CC3CC(C1)CC(n1cncn1)(C3)C2 | 28.2 µM (inconclusive)
CC(C)CN(Cc1c(O)ccc2c3c(c(=O)oc12)CCC3)CC(C)C | 20 µM (inconclusive)
Cn1c2ccccc2c2cc(C(=O)N3CCOCC3)sc21 | 39.8 µM (inconclusive)

Query: So what does the record say about AC50 for CCO/C(O)=C1/C(C)=Nc2ncnn2C1c1cccnc1 (stereo unspecified) ?
Response: 22.4 µM (inconclusive)

Query: So what does the record say about AC50 for Cc1cc(C)c(-c2noc(C(=O)OC(C)(C)C)c2C(=O)OC(C)(C)C)c(C)c1 ?
Response: 11.2 µM (inconclusive)

Query: So what does the record say about AC50 for Cc1cc(C(F)(F)F)nn1CC(=O)Nc1cccnc1 ?
Response: 22.4 µM (inconclusive)

Query: So what does the record say about AC50 for CCCCCCCCCCCCCCCC(=O)NC[C@@H](COP(=O)([O-])OCC[N+](C)(C)C)OCC ?
Response: 39.8 µM (inconclusive)

Query: So what does the record say about AC50 for CC(C)C(CCNC(=O)CC(Cc1ccccc1)c1ccco1)c1ccco1 (stereo unspecified) ?
Response: 0.631 µM (inconclusive)

Query: So what does the record say about AC50 for Cc1ccc(C(=O)NC(=S)Nc2ccc3c(c2)OCCO3)c(C)c1 ?
Response: 17.8 µM (inconclusive)

Query: So what does the record say about AC50 for CCN(CC)c1ccc(NC(=O)CSc2nnc3nc(C)cc(C)n23)cc1 ?
Response: 17.8 µM (inconclusive)

These measurements were taken from ChEMBL document CHEMBL1201862.
